Origin of measurements: PubChem BioAssay (NCI)

Test system: A498 renal
Test: NCI tumour cell line growth inhibition, 48 h
Can you tell me TGI for the items I'm about to list?
The response must be a number in µM with no trailing unit.

// query // TGI lookup, key: COc1cc(/C=C\c2cc(OC)c(OC)c(OC)c2)cc(N/C=C\C(=O)c2c[nH]c3ccccc23)c1OC
// result 12

// query // TGI lookup, key: COc1cc2c(/C=N\N=C(N)N)c[nH]c2cc1C
// result 73.9

// query // TGI lookup, key: C#CCOc1cccc(Nc2ncnc3c(NC(=O)C=C)cccc23)c1
// result 64.4

// query // TGI lookup, key: Nc1cc(Br)c(-c2nnc(CCC(=O)c3nc4ccccc4[nH]3)o2)c(Br)c1
// result 10.5

----------
Test system: SF-268 CNS
Test: NCI tumour cell line growth inhibition, 48 h
Can you tell me TGI for the items I'm about to list?

// query // TGI lookup, key: O=C(O)c1cc(-c2ccc3c(O)c(O)ccc3c2)ccc1O
// result > 75 µM

// query // TGI lookup, key: C/C1=C\CC[C@@]2(C)O[C@@H]2C[C@@H](C2(C)CO2)CC/C(C)=C/CC1 (some centres not stated)
// result 33.9 µM

// query // TGI lookup, key: CC(C)=CCC/C(C)=C/COC(C)(C)C1=CCC(C)CC1 (configuration not stated) (tested in a mixture with another compound)
// result > 100 µM

// query // TGI lookup, key: O=C1CCCN1c1ccccc1I(=O)=O
// result > 100 µM

// query // TGI lookup, key: C=C1c2cc3c(cc2CC12Cc1cc4c(cc1C2=O)CCC4)CCC3 (configuration not stated)
// result > 100 µM

// query // TGI lookup, key: Cc1ccc(OCCn2cc(Nc3ccccc3)c(=O)n(CCOc3ccc(C)cc3)c2=O)cc1
// result > 100 µM

// query // TGI lookup, key: COc1ccc(/C(C)=C(\c2ccc(OCCN3CCCCCC3)cc2)c2ccc(OC(=O)C3CCCCC3)cc2)cc1
// result 4.33 µM

// query // TGI lookup, key: CCc1c[n+]([O-])c(C)cc1[N+](=O)[O-]
// result > 100 µM

// query // TGI lookup, key: Nc1nc(N)c(N=O)c(Nc2ccc(Br)cc2)n1
// result 57.1 µM

// query // TGI lookup, key: Cc1cc(N/N=C/c2ccccn2)nc2ccccc12
// result 15.3 µM

// query // TGI lookup, key: NC(=O)C(=O)CC(=O)c1ccccc1NC1=CC(=O)C(=O)c2ccccc21
// result > 85.7 µM

// query // TGI lookup, key: Cc1[nH]c2ccccc2c1C1Cc2ccccc2N1C(=O)C#Cc1ccc([N+](=O)[O-])cc1 (configuration not stated)
// result > 100 µM

// query // TGI lookup, key: O=C(Oc1cc(=O)c(OC(=O)c2ccccc2)co1)c1ccccc1
// result > 100 µM

// query // TGI lookup, key: Cc1cc(Nc2nc(-c3cn(-c4ccc(Cl)cc4)nn3)nc3ccccc23)n[nH]1
// result > 50 µM

// query // TGI lookup, key: CO[C@H]1Nc2c(ccc(C)c2O)C(=O)N2C=C(/C=C/C(N)=O)C[C@@H]12
// result 0.411 µM

// query // TGI lookup, key: Clc1ccc(CSCCc2ccncc2)cc1Cl
// result 49.5 µM

// query // TGI lookup, key: C[C@@H]1S[C@H](c2ccccc2F)N2Cc3ccccc3N=C12
// result > 100 µM

// query // TGI lookup, key: COc1ccc(-c2c3c([nH]c(=S)c2C#N)CC(C)(C)CC3=O)cc1
// result > 100 µM

// query // TGI lookup, key: CC1CN=C(N(C(=O)Nc2ccc(F)c(Cl)c2)c2ccccc2)S1 (configuration not stated)
// result > 100 µM

// query // TGI lookup, key: c1csc(-c2ccc(-c3cccs3)c3nsnc23)c1
// result > 59.2 µM

// query // TGI lookup, key: NCCCN1CCN(CCCNc2ccc3nnn4c5ccccc5c(=O)c2c34)CC1
// result 75 µM

// query // TGI lookup, key: CC(=O)O/N=C/c1c2ccccc2cc2ccccc12
// result > 100 µM

----------
Test system: OVCAR-3 ovarian
Test: NCI tumour cell line growth inhibition, 48 h
Where a SMILES comes first, the peptide text is derived from it. Bridges are numbered along the chain shown (N, C = ends). [ ]: non-standard residue; d: D form. The star is where a group is joined. ξ: configuration not given here. X26 = O=C(/C=C/C=C/C=C/C=C/C=C/C(=O)*)NC1=C(O)CCC1=O; NMeA = CN[C@@H](C)C(=O)O; ξF = NC(Cc1ccccc1)C(=O)O; ξA = CC(N)C(=O)O
Can you tell me TGI for the items I'm about to list?

// query // TGI lookup, key: CC(C)(C)c1ccc2c(c1)S(=O)(=O)Nc1ccc(Cl)cc1NS(=O)(=O)c1cc(C(C)(C)C)ccc1OCCOCCOCCO2
// result > 100 µM

// query // TGI lookup, key: COc1ccc(C(CC(=O)c2ccc3c(c2)OCO3)c2c(O)c3ccccc3oc2=O)cc1OC (centres undefined)
// result > 100 µM

// query // TGI lookup, key: Cc1cc2c(c(C(N)=O)c1C)-c1ccccc1C2=O
// result > 100 µM

// query // TGI lookup, key: O=C(/C(=C\c1c(-c2ccccc2)[nH]c2ccccc12)S(=O)(=O)c1ccccc1)c1ccccc1
// result > 100 µM

// query // TGI lookup, key: CCOCN1COCN(C)C1=O
// result > 100 µM

// query // TGI lookup, key: Cc1ccc(C)c(N2C/C(=N\NC(=O)CC#N)C(c3nc4ccccc4s3)C(=O)C2=O)c1 (centres undefined)
// result > 100 µM

// query // TGI lookup, key: CCOC(=O)c1c(-c2ccccc2)c(-c2ccccc2)cn1C
// result > 10 µM

// query // TGI lookup, key: COC(=O)C(=O)C(C(C)=O)C(=O)NCc1ccc(OC)c(OC)c1 (centres undefined)
// result > 100 µM

// query // TGI lookup, key: O=C(NCc1ccc(Cn2c(=O)sn(-c3ccccc3)c2=O)cc1)OCc1ccc2cccc(O)c2n1
// result 1.36 µM

// query // TGI lookup, key: Cc1cc(Nc2nc(-c3cn(-c4ccc(Cl)cc4)nn3)nc3ccccc23)n[nH]1
// result 23.4 µM

// query // TGI lookup, key: c1ccc2c(c1)c1c(n2CCOCCN2CCOCC2)CCCC1
// result > 100 µM

// query // TGI lookup, key: CC1NC(=O)[C@H](C)N(C)C(=O)[C@@H]2CCCN2C(=O)[C@@H](NC(=O)C(Cc2ccccc2)NC(=O)/C=C/C=C/C=C/C=C/C=C/C(=O)NC2=C(O)CCC2=O)COC(=O)[C@@H]2CCCN2C1=O (some centres undefined) (X26-[ξF]SP[NMeA][ξA]P; ester 2-C)
// result > 100 µM

// query // TGI lookup, key: COc1cc(/C=C2\[C@H]3c4c(c(OC)c(C)c(OC)c4OC)CC(C(=O)N2Cc2ccccc2)N3C)c(OC)c(C)c1OC
// result 31.2 µM

// query // TGI lookup, key: COC(=O)C1=COC(C)C2CN3CCc4c([nH]c5ccccc45)C3CC12 (centres undefined)
// result > 100 µM

// query // TGI lookup, key: O=C(Cc1ccccc1)NN1C(=O)/C(=C\c2ccccc2)SC1=Nc1ccccc1
// result > 100 µM

// query // TGI lookup, key: O=C(Nc1cc(Nc2ncccc2-c2ncnc3nc[nH]c23)ccc1F)c1cc(C(F)(F)F)cc(C(F)(F)F)c1
// result 6.69 µM

// query // TGI lookup, key: CCN1CCCC(NCc2c3ccccc3c(CNC3CCCN(CC)C3)c3ccccc23)C1 (centres undefined)
// result 26.1 µM

// query // TGI lookup, key: CC(C)c1[nH]nc2c1N=C(c1ccccc1Cl)c1cc([N+](=O)[O-])ccc1N2
// result 13.1 µM

// query // TGI lookup, key: N#CC(N=Nc1ccc(Cl)cc1)c1nc2ccccc2o1 (centres undefined)
// result > 100 µM

// query // TGI lookup, key: Cc1c(N2C(=O)C(Cl)C2c2ccc(Cl)cc2)c(=O)n(-c2ccccc2)n1C (centres undefined)
// result > 100 µM

// query // TGI lookup, key: CCN(CC)CCCNC(=O)c1ccc([N+](=O)[O-])cc1O
// result > 100 µM

// query // TGI lookup, key: NCCNCC1CCNCC1
// result > 100 µM

// query // TGI lookup, key: CC1(C)C2CC(=O)C1(C)C(O)C2Br (centres undefined)
// result > 100 µM

// query // TGI lookup, key: O=C1Nc2ccccc2/C1=C1\CCc2cc(O)ccc21
// result > 25 µM

// query // TGI lookup, key: N#CC(=Nc1ccccc1N(C(=O)c1ccccc1)C(=O)c1ccccc1)c1ccccc1
// result > 100 µM

// query // TGI lookup, key: COC(C)(C)[C@@H](O)[C@H]1C[C@H](C)[C@@]2(CC[C@]3(C)[C@@H]2CC[C@@H]2[C@@]4(C)CC[C@@H](OC(C)=O)C(C)(C)[C@@H]4C[C@@H](OC4OC(COC(C)=O)C(O)C(O)C4O)[C@]23C)O1 (some centres undefined)
// result 15.3 µM

// query // TGI lookup, key: CN(C)CCNCCN
// result > 100 µM

// query // TGI lookup, key: NC(CC1=CS(=O)(=O)c2ccc(Cl)cc21)C(=O)O (centres undefined)
// result > 100 µM

// query // TGI lookup, key: CCOP(=O)(OCC)C(C(=O)OC)C(=O)C(=O)Nc1ccc(Cl)cc1Cl (centres undefined)
// result > 100 µM

// query // TGI lookup, key: Nc1ccccc1C(=O)/C=C/c1c(O)ccc2ccccc12
// result > 100 µM

// query // TGI lookup, key: O=C(Nc1cc(Cl)ccc1O)c1ccc(Nc2ccnc(C(F)(F)F)c2)cc1
// result 5.58 µM

// query // TGI lookup, key: COc1ccc(S(=O)(=O)N2C(=O)CCC2C(=O)NN)cc1 (centres undefined)
// result > 100 µM

// query // TGI lookup, key: C/C1=C\CC[C@@]2(C)O[C@@H]2C[C@@H](C2(C)CO2)CC/C(C)=C/CC1 (some centres undefined)
// result 48.9 µM

// query // TGI lookup, key: O=C(Cc1nc2c3c(ccc2[nH]c1=O)C(=O)c1ccccc1C3=O)C(=O)Nc1ccccc1[N+](=O)[O-]
// result 25.6 µM

// query // TGI lookup, key: CC(O)CCCOC(c1ccccc1)(c1ccccc1)c1ccccc1 (centres undefined)
// result 27.3 µM

// query // TGI lookup, key: Cc1[nH]c2ccccc2c1C1Cc2ccccc2N1C(=O)C#Cc1ccc([N+](=O)[O-])cc1 (centres undefined)
// result > 100 µM

// query // TGI lookup, key: S=c1[nH]c2ccc(Br)cc2c(=S)s1
// result > 100 µM

// query // TGI lookup, key: COc1cc(-c2cc(=O)c3cc4c(=O)cc(-c5cc(OC)c(OC)c(OC)c5)oc4cc3o2)cc(OC)c1OC
// result > 100 µM

// query // TGI lookup, key: CC[n+]1[b-](C(C)(C)C)n(/N=C/C(C)(C)C)[b-](C(C)(C)C)[n+]1CC
// result > 100 µM
